# Tested on: Plasmodium berghei
# procedure.summary: Screen against P. berghei liver stage (PbLuc), transformed with Luciferase, at 10uM
# Format: functional, HepG2
# condition.details: tested at 10 uM
The campaign covered roughly 69,000 compounds. About 8,600 (12%) showed an effect of 50% or more. The list comes from a sample in which strong results are over-represented; it also holds close analogues and randomly drawn compounds.
recorded.metric: INHIBITION (%)
One number for each entry, in %.

Would you please look over these solved cases?
molecule	INHIBITION / %
CCN1CCN(C2CCN(C(C(N)=O)c3ccccc3)CC2)C1=O (centres undefined)	61.1
Fc1ccc(OC2CCN(Cc3nnc(-c4ccco4)o3)CC2)cc1	-53.1
Cc1ncccc1CNc1ccc(OCCO)nc1	-89.9

Record INHIBITION for all entries; do not skip any.
1. Cc1nn(C)c2cn(C(C)C(=O)NCc3cccnc3)nc12 (centres undefined)
2. OCCOc1ccc(NCc2cccc3cn[nH]c23)cn1
3. Cc1nn(C)c(Cl)c1C1CCCN1Cc1ccccn1 (centres undefined)

-2.37
-1.45
8.64

Record INHIBITION for all entries; do not skip any.
1. OC1CCN([C@@H]2CCN(c3nc(-c4ccccc4)no3)C[C@H]2O)CC1
2. c1cc(-c2nc(C3CCN(Cc4ccsc4)CC3)no2)ccn1
3. Cc1ccc(OC2(C(=O)NC(C)c3csc(C)n3)CCNCC2)cc1 (centres undefined)
4. c1ccc(CN2CCc3c(COCc4ccncc4)cncc3C2)nc1
5. COc1ccccc1CNC(=O)C(C)n1cc2c(n1)c(C)nn2C (centres undefined)

69.8
50.8
41.2
3.81
21.7

Record INHIBITION for all entries; do not skip any.
1. CC(C1CC1)N(C)Cc1nnc(-c2ccco2)o1 (centres undefined)
2. C=c1ncsc1=C1NN=C(C2CCCN2C(=O)CCn2ccc(C)n2)O1 (centres undefined)
3. Cc1ccc(N2CCCC(NCc3nnc(-c4ccco4)o3)C2)nn1 (centres undefined)
4. O=C(Cc1ccsc1)N1CCC(c2noc(-c3ccncc3)n2)CC1

21.5
21.95
11.94
-0.902

Reference source: ChEMBL document CHEMBL4513216
